- experimental target: kidney membrane fraction
- experiment notes: Inhibition of binding of ^3H-Glc-O-C8-AVP to kidney membrane fraction (Test 4)
- condition description: ^3H-Glc-O-C8-AVP 20 pmol/ml, kidney membrane fraction 1 mg/ml, on ice 10 min
endpoint label: IC50 (µM)
Report only the number, with the unit µM understood.

                                   compound  observed_value
0  CCCCCCCCS[C@@H]1O[C@H](CO)[C@H](O)[C@H](O)[C@H]1O [Gal-S-C8, Octyl 1-thio-β-D-galactopyranoside]             120
1  CCCCCCO[C@@H]1O[C@H](CO)[C@@H](O)[C@H](O)[C@H]1O [Glc-O-C6, Hexyl β-D-glucopyranoside]             5.9
2  CCCCCCCCS[C@@H]1O[C@H](CO)[C@@H](O)[C@H](O)[C@H]1O [Glc-S-C8, Octyl 1-thio-β-D-glucopyranoside]           0.065

Okay, next one:
Task: Return IC50 measured with kidney membrane fraction given this compound: CCCCCCCCO[C@@H]1O[C@H](CO)[C@@H](O)[C@H](O)[C@H]1O [Glc-O-C8, Octyl β-D-glucopyranoside]
Result: 2.9

---

- experiment notes: Pharmacokinetic test of rats (Glc-S-C5-Ala-DEX) (Test 10 (1))
- Format: in vivo
- condition description: male, rat, kidney, iv, Group B, i.v. 100 nmol/kg, n = 3, average ± SD, read-out: Concentration of dexamethasone: Kidney
- Excerpt: For both the groups, the dose was 100 nmol/kg. Plasma was fractionated from the collected blood according to the conventional method. Further, the kidney and the liver were extracted. The plasma was deprotenized, and the organs were homogenized and deprotenized, followed by separation by reversed phase liquid chromatography. Thereafter, Glc-S-C5-Ala-DEX and dexamethasone were detected and quantitatively determined by UV detector.
endpoint label: concentration at 5 min (nM)
Return type: number; implicit unit nM.

Task: // returns reported concentration at 5 min for input C[C@@H]1C[C@H]2[C@@H]3CCC4=CC(=O)C=C[C@]4(C)[C@@]3(F)[C@@H](O)C[C@]2(C)[C@@]1(O)C(=O)CO
Result: 203

---

- Tested on: kidney membrane fraction
- experiment notes: Effect of sugars on inhibition of specific binding between ^3H-Glc-S-C8 and kidney membrane fraction (Test 8)
- condition description: sample 20 mM; ^3H-Glc-S-C8 20 pmol/ml, kidney membrane fraction 1 mg protein/ml
endpoint label: Inhibition (%)
# unit: % | format: bare number

In [3]: df
Out[3]:
                                   compound  reading_unit  observed_value
0       OC[C@H]1NC[C@H](O)[C@@H](O)[C@@H]1O             %            98.9
1  OC[C@H]1OC(O)[C@H](O)[C@@H](O)[C@@H]1O (some centres unmarked)             %            16.7
2    O=C[C@H](F)[C@@H](O)[C@H](O)[C@H](O)CO             %            37.8
3   O=C[C@H](O)[C@@H](O)[C@@H](O)[C@H](O)CO             %             2.5

Task: // returns reported Inhibition (%) for input O=C[C@H](O)[C@@H](F)[C@H](O)[C@H](O)CO
Result: 9.7

---

- experiment notes: Distribution of sugar-modified AVP in organs (Test 1)
- Type: in vivo, male SD rats
- condition description: rats, i.v. 1 nmol/kg, 5 min after administration; concentration in organs and organ clearance as index (Figs. 1 and 2)
- Protocol: The organ clearance was determined by the following equation. The organ clearance under the above experimental conditions is considered as a measure of the speed at which the compound is incorporated into the organs. The kidney is an organ which functions to perform glomerular filtration for the production of urine. The renal clearance of low-molecular weight compounds, which are likely to undergo glomerular filtration, is generally larger than the clearance for other organs. […]

molecule	renal selectivity
N=C(N)NCCC[C@H](NC(=O)[C@@H]1CCCN1C(=O)[C@@H]1CSSC[C@H](NC(=O)CCCCCCCCO[C@@H]2O[C@H](CO)[C@@H](O)[C@H](O)[C@H]2O)C(=O)N[C@@H](Cc2ccc(O)cc2)C(=O)N[C@@H](Cc2ccccc2)C(=O)N[C@@H](CCC(N)=O)C(=O)N[C@@H](CC(N)=O)C(=O)N1)C(=O)NCC(N)=O [Glc-O-C8-AVP]	high renal selectivity
N=C(N)NCCC[C@H](NC(=O)[C@@H]1CCCN1C(=O)[C@@H]1CSSC[C@H](NC(=O)CCCCCCCCO[C@H]2C[C@@H](O)[C@H](O)[C@@H](CO)O2)C(=O)N[C@@H](Cc2ccc(O)cc2)C(=O)N[C@@H](Cc2ccccc2)C(=O)N[C@@H](CCC(N)=O)C(=O)N[C@@H](CC(N)=O)C(=O)N1)C(=O)NCC(N)=O [2dGlc-O-C8-AVP]	high renal selectivity
N=C(N)NCCC[C@H](NC(=O)[C@@H]1CCCN1C(=O)[C@@H]1CSSC[C@H](NC(=O)CCCCCCCCO[C@@H]2O[C@H](CO)[C@@H](O)[C@H](O)[C@@H]2O)C(=O)N[C@@H](Cc2ccc(O)cc2)C(=O)N[C@@H](Cc2ccccc2)C(=O)N[C@@H](CCC(N)=O)C(=O)N[C@@H](CC(N)=O)C(=O)N1)C(=O)NCC(N)=O [Man-O-C8-AVP]	high renal selectivity

---

- System: kidney membrane fraction
- experiment notes: Effect of sugars on inhibition of specific binding between ^3H-Glc-S-C8 and kidney membrane fraction (Test 8)
- condition description: sample 100 mM; ^3H-Glc-S-C8 20 pmol/ml, kidney membrane fraction 1 mg protein/ml
Outcome: 1.0 for Inhibition (%) of at least 40%; 0.0 for anything lower.

Known results for compounds:
>>> df
                                 compound  assigned_label
0  O=C[C@H](O)[C@@H](F)[C@H](O)[C@H](O)CO             0.0
1         O=CC[C@@H](O)[C@H](O)[C@H](O)CO             1.0
2  O=C[C@H](O)[C@@H](O)[C@H](O)[C@H](O)CF             0.0
3  O=C[C@H](F)[C@@H](O)[C@H](O)[C@H](O)CO             1.0

Task: Textbook exercise: given the entry OC[C@H]1NC[C@H](O)[C@@H](O)[C@@H]1O , state whether its Inhibition (%) is greater than or equal to 40%.
Result: 1.0

Task: Is Inhibition (%) for O=C[C@H](O)[C@@H](O)[C@@H](O)[C@H](O)CO at or above 40%?
Result: 0.0

Task: Record OC[C@H]1OC(O)[C@H](O)[C@@H](O)[C@@H]1O (some centres unmarked) ; criterion: Inhibition (%) no lower than 40%. Met?
Result: 0.0

Task: Has O=C[C@H](O)[C@@H](O)[C@H](F)[C@H](O)CO a recorded Inhibition (%) greater than or equal to 40%?
Result: 1.0

---

- Test system: kidney membrane fraction
- experiment notes: Effect of sugars on inhibition of specific binding between ^3H-Glc-S-C8 and kidney membrane fraction (Test 8)
- condition description: sample 20 mM; ^3H-Glc-S-C8 20 pmol/ml, kidney membrane fraction 1 mg protein/ml
endpoint label: Inhibition (%)
The answer is to be given in %; state only the numeric part.

                                   compound       experimental_target  observed_value
0  O=C[C@H](O)[C@@H](O)[C@H](F)[C@H](O)CO [4-Fluoro-4-deoxyglucose]  kidney membrane fraction            70.2
1  O=C[C@H](O)[C@@H](O)[C@H](O)[C@H](O)CF [6-Fluoro-6-deoxyglucose]  kidney membrane fraction            17.8

Task: Look up Inhibition (%) with kidney membrane fraction for this compound: O=CC[C@@H](O)[C@H](O)[C@H](O)CO [2-Deoxyglucose]
Result: 29.2
